assay.summary: Transport across Caco-2 cell monolayers (A-B and B-A directions)
measurement.parameters: human, Caco-2, pH 7.4, Papp PBA, in the mixture of Shaoyao-Gancao extract (1:1); paeoniflorin 50 μM, glycyrrhizic acid 22 μM, liquiritin 54 μM; mean ± SD, n = 3
measured.metric: Papp at 4 h (×10⁻⁶ cm/s)

>  <record.smiles>
O=C1C[C@@H](c2ccc(O[C@@H]3O[C@H](CO)[C@@H](O)[C@H](O)[C@H]3O)cc2)Oc2cc(O)ccc21

>  <Papp at 4 h / ×10⁻⁶ cm/s>
1.58

$$$$

a: C[C@@]12C[C@@]3(O)O[C@@H](O1)[C@]1(COC(=O)c4ccccc4)[C@H]3C[C@@]12O[C@@H]1O[C@H](CO)[C@@H](O)[C@H](O)[C@H]1O
b: CC1(C)[C@@H](O[C@H]2O[C@H](C(=O)O)[C@@H](O)[C@H](O)[C@H]2O[C@@H]2O[C@H](C(=O)O)[C@@H](O)[C@H](O)[C@H]2O)CC[C@]2(C)[C@H]3C(=O)C=C4[C@@H]5C[C@@](C)(C(=O)O)CC[C@]5(C)CC[C@@]4(C)[C@]3(C)CC[C@@H]12
Exercise: Which value of Papp at 4 h is smaller, the one for a or the one for b ? # reply format: chosen label
Key: b

###

assay.summary: Transport across Caco-2 cell monolayers (A-B and B-A directions)
measurement.parameters: human, Caco-2, pH 7.4, Papp PAB, in the mixture of Shaoyao-Gancao extract (1:1); paeoniflorin 50 μM, glycyrrhizic acid 22 μM, liquiritin 54 μM; mean ± SD, n = 3
measured.metric: Papp at 4 h (×10⁻⁶ cm/s)

>  <compound>
CC1(C)[C@@H](O[C@H]2O[C@H](C(=O)O)[C@@H](O)[C@H](O)[C@H]2O[C@@H]2O[C@H](C(=O)O)[C@@H](O)[C@H](O)[C@H]2O)CC[C@]2(C)[C@H]3C(=O)C=C4[C@@H]5C[C@@](C)(C(=O)O)CC[C@]5(C)CC[C@@]4(C)[C@]3(C)CC[C@@H]12 [Glycyrrhizic acid]

>  <Papp at 4 h, ×10⁻⁶ cm/s>
1.17

$$$$

A: C[C@@]12C[C@@]3(O)O[C@@H](O1)[C@]1(COC(=O)c4ccccc4)[C@H]3C[C@@]12O[C@@H]1O[C@H](CO)[C@@H](O)[C@H](O)[C@H]1O [Paeoniflorin]
B: O=C1C[C@@H](c2ccc(O[C@@H]3O[C@H](CO)[C@@H](O)[C@H](O)[C@H]3O)cc2)Oc2cc(O)ccc21 [Liquiritin]
Exercise: Which value of Papp at 4 h is smaller, the one for A or the one for B ? # reply format: chosen label
Key: B
(B: 1.31 ×10⁻⁶ cm/s, A: 1.96 ×10⁻⁶ cm/s)

###

assay.summary: Transport across Caco-2 cell monolayers (A-B and B-A directions)
measurement.parameters: human, Caco-2, pH 7.4, Papp PBA (secretary permeability), single component solution; paeoniflorin 50 μM, glycyrrhizic acid 20 μM, liquiritin 50 μM; HBSS pH 7.4; mean ± SD, n = 3
measured.metric: Papp at 4 h (×10⁻⁶ cm/s)

>  <molecule>
C[C@@]12C[C@@]3(O)O[C@@H](O1)[C@]1(COC(=O)c4ccccc4)[C@H]3C[C@@]12O[C@@H]1O[C@H](CO)[C@@H](O)[C@H](O)[C@H]1O [Paeoniflorin]

>  <unit.of.measurement>
×10⁻⁶ cm/s

>  <meas.value>
1.28

$$$$
>  <molecule>
CC1(C)[C@@H](O[C@H]2O[C@H](C(=O)O)[C@@H](O)[C@H](O)[C@H]2O[C@@H]2O[C@H](C(=O)O)[C@@H](O)[C@H](O)[C@H]2O)CC[C@]2(C)[C@H]3C(=O)C=C4[C@@H]5C[C@@](C)(C(=O)O)CC[C@]5(C)CC[C@@]4(C)[C@]3(C)CC[C@@H]12 [Glycyrrhizic acid]

>  <unit.of.measurement>
×10⁻⁶ cm/s

>  <meas.value>
0.83

$$$$
>  <molecule>
O=C1C[C@@H](c2ccc(O[C@@H]3O[C@H](CO)[C@@H](O)[C@H](O)[C@H]3O)cc2)Oc2cc(O)ccc21 [Liquiritin]

>  <unit.of.measurement>
×10⁻⁶ cm/s

>  <meas.value>
1.57

$$$$

The measured values listed here are drawn from paper PMC6268140.
